Reported Ki against UniProt Q16790, gathered from multiple publications, appears below.
Experimental Endpoint: Ki (nM)

Known Ki results, listed for orientation:
chemical_smiles=N#CCCN(CCc1ccccc1)CC(=O)N(CCc1ccc(S(N)(=O)=O)cc1)Cc1ccco1 experimental_endpoint=Ki numeric_result=95.1
chemical_smiles=COc1cc(/C=C/C(=O)OCCCCCN(C)CCCCCOC(=O)COc2ccc3ccc(=O)oc3c2)cc(OC)c1OC experimental_endpoint=Ki numeric_result=26.6

(a) Cc1ccc(-c2c(S(=O)(=O)c3ccccc3)nnn2-c2ccc(S(N)(=O)=O)cc2)cc1
(b) CCCCCN(CCCCC)CC(=O)N(CCc1ccc(S(N)(=O)=O)cc1)Cc1ccccc1
Sorting ascending by Ki, which comes first: a or b ? // return label of chosen record
a

====

Hi, quick share: literature Ki data for Carbonic anhydrase 9 (Homo sapiens), several sources combined.
Experimental Endpoint: Ki (µM)

Previously resolved entries follow.
compound=NS(=O)(=O)c1ccccc1NC(=O)c1ccc2cc[nH]c2c1 experimental_endpoint=Ki unit_info=µM numeric_result=0.487
compound="CC1(C(=O)Nc2ccc(S(N)(=O)=O)cc2)Oc2ccccc2NC1=O (stereo not drawn)" experimental_endpoint=Ki unit_info=µM numeric_result=0.26
compound=NS(=O)(=O)c1ccc(-c2cn(CCCS(=O)(=O)[O-])nn2)cc1.[Na+] experimental_endpoint=Ki unit_info=µM numeric_result=0.0359

(A) C=CCc1ccc(OCCCCOc2ccc3ccc(=O)oc3c2)c(OC)c1
(B) CCOC(=O)COc1ccc2oc(=O)ccc2c1
(C) NS(=O)(=O)c1ccc(NC(=O)NC(=O)c2ccccc2)cc1
(D) NS(=O)(=O)c1ccc(N2N=C(c3ccc(O)cc3)CC2c2ccc(F)cc2)cc1 (stereo not drawn)
(E) NS(=O)(=O)c1cccc(NC(=O)c2ccc3cc[nH]c3c2)c1
Order the items by recorded Ki; the first position goes to the largest value. List each label, following the requested order.
B, E, C, D, A
(B: 2.04 µM, E: 0.654 µM, C: 0.208 µM, D: 0.0841 µM, A: 0.0313 µM)

====

Header: Ki / Carbonic anhydrase 9 (Homo sapiens, UniProt Q16790) / multiple publications
Experimental Endpoint: Ki (nM)

Here are 6 compounds together with their reported answers.
compound=O=C(COc1ccc2oc(=O)ccc2c1)NCc1ccc(F)cc1 numeric_result=2780
compound=CCC(=O)Nc1cc(S(N)(=O)=O)ccc1OCc1cn(CCCCS(=O)(=O)O)nn1 numeric_result=236
compound="CSCC[C@H](NC(=O)OCc1ccccc1)C(=O)Nc1ccc2c(c1)NC(=O)CC2 (stereo in doubt)" numeric_result=37700
compound=NS(=O)(=O)c1ccc(N2CC[C@H](NC(=O)Nc3ccc(F)cc3)C2)nc1 numeric_result=20.2
compound=CCCCCCCCN(CCCCCCCC)CCC(=O)N(CCc1ccc(S(N)(=O)=O)cc1)Cc1ccccc1 numeric_result=147
compound=COc1cc2ccc(=O)oc2c2c1O[C@H](C(C)(C)O)C2 numeric_result=151

(a) CCCn1c2ccc(Cl)cc2c2nnc(SCc3cn(-c4ccc(S(N)(=O)=O)cc4)nn3)nc21
(b) C=CCc1ccc(OCc2cn(CCCCCCCCCCCCOc3ccc4ccc(=O)oc4c3)nn2)c(OC)c1
Kindly identify which of a and b has the larger recorded Ki value. Lab note: record the label of whichever item you select.
a
(a: 204 nM, b: 29.9 nM)

(1) O=C(O)COc1ccc2oc(=O)ccc2c1
(2) CCCCCCN(CCCCCC)CCC(=O)N(CCc1ccccc1)CCc1ccc(S(N)(=O)=O)cc1
(3) COc1ccc(-c2nc(-c3ccccc3)c(-c3ccccc3)n2-c2ccc(S(N)(=O)=O)cc2)cc1OC
Ordering: ascending Ki. Your task in answering is to list the labels in the requested order.
2, 1, 3
(2: 42.9 nM, 1: 195 nM, 3: 9200 nM)
